# System: RARa:RXR (NR concentration 270 nM, RXRa partner concentration 90 nM)
# experimental_details: PBM binding z-score (relative to random genomic background probes); higher = stronger binding; sequences stand for … in GC…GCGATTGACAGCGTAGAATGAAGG
PBM binding z-score by entry:
// return a plain number; no unit text

Worked examples, 4 sequences total:
chain	system_under_test	PBM binding z-score
TATACAGGCTCAAAGGCCAGAGTACGAATGTCGA	RARa:RXR (NR concentration 270 nM, RXRa partner concentration 90 nM)	-0.258
ACTAGCAGGCCAAGTTTGGGTCCCTCAAACAAAG	RARa:RXR (NR concentration 270 nM, RXRa partner concentration 90 nM)	-0.00931
TATACAGGGTCAAAGGCCAGAGTACGAATGTCGA	RARa:RXR (NR concentration 270 nM, RXRa partner concentration 90 nM)	5.75
ATATGTAGGTTTAGGGTCATTCAGGTTGGTTCGC	RARa:RXR (NR concentration 270 nM, RXRa partner concentration 90 nM)	4.48

Input line: Value lookup for PBM binding z-score; key = TCTTGTAGATCAAGCAGGTTAAGAAGGCCTGAGT
Output line: 0.642

Input line: Value lookup for PBM binding z-score; key = TAGCCTAGGTCATGGGCCAGAATACCACGCGAAC
Output line: 2.51

###

# System: PXR homodimer (NR concentration 270 nM)
# experimental_details: PBM binding z-score (relative to random genomic background probes); higher = stronger binding; sequences stand for … in GC…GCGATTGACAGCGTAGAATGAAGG
Rule: PBM binding z-score of 2 or more gives Criterion met; anything lower gives Criterion not met.

Below are worked cases with known answers.
chain	system_under_test	class
CAAATTAGGTCAAGAGGTCAAAGTCCGCTTCCCG	PXR homodimer (NR concentration 270 nM)	Criterion met
GCGTATAGGTAATACAAGGTGAAAGTCCGATTGT	PXR homodimer (NR concentration 270 nM)	Criterion not met
TCTAGTTTGTCACGGAGGTCACACACGACGGGTA	PXR homodimer (NR concentration 270 nM)	Criterion not met
CAAACTAGGTCACCGGAAGGTCAAAGTACGCATG	PXR homodimer (NR concentration 270 nM)	Criterion not met
GCTTGTGGATCAAGGTTAAGAAAGACTAAGCTAA	PXR homodimer (NR concentration 270 nM)	Criterion not met

Turning to the following sequence.
Input line: // inclusive: PBM binding z-score at least 2? input: TAGTCTAGGTCAGATCGGGCCAGTATACGCTATA
Output line: Criterion not met

###

# Test system: RARa:RXR (NR concentration 270 nM, RXRa partner concentration 90 nM)
# experimental_details: PBM binding z-score (relative to random genomic background probes); higher = stronger binding; sequences stand for … in GC…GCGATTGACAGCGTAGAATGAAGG
Classes (PBM binding z-score): range 1 (below 0.6), range 2 (0.6 to below 2), range 3 (2 or more)

chain	class
CCTACTGGGCCATCATGTCATTGATATCAACGTT	range 1
TCTTGTAGATCAGAGGTTAAGAAAGCCGAAGCCT	range 2
ATCTCTAGATAAAGATAGTTCAGTGAATGCAAAT	range 1
TAGCCTAGGTCAGATCGGGCCGGTATACGCTATA	range 1
CCTACTGGGGCATTCAGAGGTCATTGATCATATG	range 3

Input line: Pick a category. Item: TAGCCTAGGTCATTGGGCCTGTATAGTACGCATC
Output line: range 3

Input line: Pick a category. Item: CCTTACGGGTCACTCCAGGTTATCGCATCGGAGT
Output line: range 3

Input line: Pick a category. Item: TCTTGTAGACCAGCAGGTTAAGAAAGCTGGCCAA
Output line: range 1

Input line: Pick a category. Item: TAGCCTAGGTCGTTGGGCCAGTATAGTACGCATC
Output line: range 1

Input line: Pick a category. Item: CCTGCTGGGTCAATGGTCAGCTAAAGCAGCTCGC
Output line: range 2

Input line: Pick a category. Item: AATACAGGGTCATCGTAGGACAGAGTACGCACAG
Output line: range 3

Input line: Pick a category. Item: TCTAGTTGCTCACGGAGGTCACACACGACGGGTA
Output line: range 3

Input line: Pick a category. Item: TCGAGTGGGTTAGGGGCATTCAGAATGGCGTCGA
Output line: range 2

Input line: Pick a category. Item: CCTTACGGGTCACGAGGTTATAGAACGACGAGCG
Output line: range 3

Input line: Pick a category. Item: TCTGCTAGGTCAACTATGGTCAGCTAATCTGCTA
Output line: range 3

Input line: Pick a category. Item: CCTACTGGGCCAAGGTCGTTGATCAGTCAAAGCA
Output line: range 1

Input line: Pick a category. Item: ATCTCTAGGTAAGACTCAGTTCAGCGAAGAACGC
Output line: range 1

Input line: Pick a category. Item: GATACAGGGTCAGCTAGAGGCCAGAGCATGGAAA
Output line: range 3

Input line: Pick a category. Item: TCAGACAGGTGAAGGTAACCCAGGTACGCAGTCG
Output line: range 2

Input line: Pick a category. Item: GTACCAAAGTGAATAGGTCGTTGATGAGTAGGCG
Output line: range 1

Input line: Pick a category. Item: CTCGAACGGTCGGTTGAGGTGAGTATACGGATAA
Output line: range 2

Input line: Pick a category. Item: TCTAGCAGGCCAGAGGGTCACTAAAGAGGTACGG
Output line: range 2

Input line: Pick a category. Item: TCATATAGGTAGATGCTAGGTGAAAGTCCGATCT
Output line: range 2

###

# Test system: RARg:RXRa (NR concentration 270 nM, RXRa partner concentration 90 nM)
# experimental_details: PBM binding z-score (relative to random genomic background probes); higher = stronger binding; sequences stand for … in GC…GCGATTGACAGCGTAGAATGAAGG
PBM binding z-score by entry:
// return a plain number; no unit text

Worked examples, 6 sequences total:
chain	PBM binding z-score
AGAATGAGGTTATTAAGATCAGTGAATTGCGGTC	1.21
TTACCAAGGTGAAAGGCCGTTGATGCACGCCTTG	0.963
GGAACGAGGGCTAGTTGATAGCAGAGTTTGATGG	-0.308
CCTACTGGGCCAAAGGTCATTGATTCCAATGCTC	5.94
CCTTACGGGTCAAGGTTATAGTACGGGTGGTACG	4.78
CTCGAAAGGTCGTGCTCAGGTGAGTCTACCAAAC	5.27

Alright, here's another sequence for you.
Input line: Value lookup for PBM binding z-score; key = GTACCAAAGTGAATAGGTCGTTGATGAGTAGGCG
Output line: 0.205

###

# System: PPARa:RXRa (NR concentration 270 nM, RXRa partner concentration 90 nM)
# experimental_details: PBM binding z-score (relative to random genomic background probes); higher = stronger binding; sequences stand for … in GC…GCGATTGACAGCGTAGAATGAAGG
PBM binding z-score by entry:
// return a plain number; no unit text

chain	system_under_test	assay_value
ATATGTAGGTTACATCCGGGTCACTCAGGCTATG	PPARa:RXRa (NR concentration 270 nM, RXRa partner concentration 90 nM)	4.31
AGTCAAAGCTCATCTAGGTAACGTAAGATATGCT	PPARa:RXRa (NR concentration 270 nM, RXRa partner concentration 90 nM)	0.0609
CCGACTGGGGCATAAGGTTACCATTAGCCAGCCC	PPARa:RXRa (NR concentration 270 nM, RXRa partner concentration 90 nM)	1.85
GATACAGGGTCAGCTAGAGGCGAGAGTATGGAAA	PPARa:RXRa (NR concentration 270 nM, RXRa partner concentration 90 nM)	4.46
CGTAGCAGGCCAATCTGGGTCACTCAAGGCTTGA	PPARa:RXRa (NR concentration 270 nM, RXRa partner concentration 90 nM)	2.6
ATATGTAGGTTACATCCGGGTCATTAAGGCTATG	PPARa:RXRa (NR concentration 270 nM, RXRa partner concentration 90 nM)	4.35

Input line: Value lookup for PBM binding z-score; key = GTACCAAGGTGAATAGGTGGTTGATGAGTAGGCG
Output line: 0.864

Input line: Value lookup for PBM binding z-score; key = CAGCCTAGGTCAGGGCCAGTATGGGAGGAACGTT
Output line: 2.06

Input line: Value lookup for PBM binding z-score; key = TCGAGTAGGTTACGGGCATTCAGAATGGCGTCGA
Output line: 1.33

Input line: Value lookup for PBM binding z-score; key = TAGCCTGGGTCATGCGGGCCAGTATAGTGTCGGC
Output line: 3.4

Input line: Value lookup for PBM binding z-score; key = TCCTATAGGTAATACAGGTGAAAGTCGGCATCTA
Output line: 1.84

Input line: Value lookup for PBM binding z-score; key = CCTAGCAGGCCAGGGTCACTAAAGCATTTCGCTT
Output line: 3.06

Input line: Value lookup for PBM binding z-score; key = TTACCAAGGTGAAAGGTCGTTGTTGCACGCCTTG
Output line: 5.29

Input line: Value lookup for PBM binding z-score; key = TCTAGCAGGCCAGCGGGTCACTCAAGAGGTACGG
Output line: 1.92

Input line: Value lookup for PBM binding z-score; key = CAAACTAGGTCATGAAAGGTCAAAGTCGAATGAC
Output line: 6.78

Input line: Value lookup for PBM binding z-score; key = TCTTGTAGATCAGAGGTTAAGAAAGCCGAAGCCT
Output line: 2.87

Input line: Value lookup for PBM binding z-score; key = TGACTGAGGTTATAAGATCAGGGAACGTTGCAAA
Output line: 2.27

Input line: Value lookup for PBM binding z-score; key = TCATAAAGGTAAATGCTAGGTGAAAGTCCGATCT
Output line: 1.55

Input line: Value lookup for PBM binding z-score; key = TCTTGTAGATTAGCAGGTTAAGAAAGCTGGCCAA
Output line: 0.897
